Assay: CCTE_Mundy_HCI_Cortical_NOG_BPCount: CCTE's Neurite Outgrowth Assay in rat cortical cells for Branch Point Count, Mundy Lab (AID 2284237)
The source made the active and inactive calls. The calls were made as follows: active = hit-call score of the fitted dose curve at least 0.9, where 1 is the maximum; inactive = score below 0.9.
Outcomes: True for active, False for inactive

INSERT INTO results (compound, classification) VALUES
  ('O=C(O)COc1ccc(Cl)cc1Cl', 'False'),
  ('CCC(C)(C)C(=O)OC1=C(c2ccc(Cl)cc2Cl)C(=O)OC12CCCCC2', 'False'),
  ('CNC(=O)CSP(=S)(OC)OC', 'False'),
  ('CC1(c2ccc(Oc3ccccc3)cc2)OC(=O)N(Nc2ccccc2)C1=O (stereo not drawn)', 'True'),
  ('O=C(O)C(F)(F)C(F)(F)C(F)(F)C(F)(F)C(F)(F)C(F)(F)C(F)(F)F', 'False'),
  ('O=S(=O)(O)C(F)(F)C(F)(F)C(F)(F)C(F)(F)C(F)(F)C(F)(F)C(F)(F)C(F)(F)F', 'False'),
  ('O=S1OCC2C(CO1)C1(Cl)C(Cl)=C(Cl)C2(Cl)C1(Cl)Cl (stereo not drawn)', 'True'),
  ('COP(=S)(OC)Oc1ccc([N+](=O)[O-])cc1', 'True');
